System: Zymoseptoria tritici (SEPTTR-184)
Experiment summary: Efficacy of target gene fragments (MgCytB dsRNA tiles) on wheat plants, SEPTTR-184
Format: in vivo
Recorded conditions: 3DC (curative)
Quantity measured: ED50 SEPTTR-184 3DC

Below: 2 molecules and their reported ED50 SEPTTR-184 3DC.
MgCytB-T2: 203 bp dsRNA of Zymoseptoria CytB region 2, location 603-805 (SEQ ID NO:5) (nucleic acid, listed as Zymoseptoria tritici, complementary strand of dsRNA) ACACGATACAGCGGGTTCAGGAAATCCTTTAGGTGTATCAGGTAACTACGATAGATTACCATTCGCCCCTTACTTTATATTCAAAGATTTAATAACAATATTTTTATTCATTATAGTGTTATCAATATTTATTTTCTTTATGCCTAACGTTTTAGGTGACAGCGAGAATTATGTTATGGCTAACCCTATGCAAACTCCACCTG : <3.125 ppm
MgCytB-T3: 116 bp dsRNA of Zymoseptoria CytB region 3, location 279-394 (SEQ ID NO:6) (nucleic acid, listed as Zymoseptoria tritici, long dsRNA, chemistry not given here, further chemistry not given here) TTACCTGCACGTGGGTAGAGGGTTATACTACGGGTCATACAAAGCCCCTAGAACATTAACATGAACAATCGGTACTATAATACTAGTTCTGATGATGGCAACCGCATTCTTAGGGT : <3.125 ppm

Here's the next entry for you.
-- ask Quote ED50 SEPTTR-184 3DC reported for MgCytB-T6: 258 bp dsRNA of Zymoseptoria CytB region T6, location 775-1032 (SEQ ID NO:9) (nucleic acid, listed as Zymoseptoria tritici, complementary strand of dsRNA) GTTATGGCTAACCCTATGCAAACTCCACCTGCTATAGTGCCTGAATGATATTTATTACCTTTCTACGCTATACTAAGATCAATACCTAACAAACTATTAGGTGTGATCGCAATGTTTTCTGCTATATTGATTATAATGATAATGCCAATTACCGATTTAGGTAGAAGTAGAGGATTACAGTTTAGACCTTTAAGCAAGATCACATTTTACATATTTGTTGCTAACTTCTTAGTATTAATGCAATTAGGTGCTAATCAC please.
-- reply <3.125 ppm

This collection of values is drawn from patent US10392620B2.
